# Tested on: VDR homodimer (NR concentration 270 nM)
# METHOD SUMMARY: PBM binding z-score (relative to random genomic background probes); higher = stronger binding; sequences stand for … in GC…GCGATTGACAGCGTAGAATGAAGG
PROPERTY NAME: PBM binding z-score

• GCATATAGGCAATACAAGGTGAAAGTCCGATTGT = -0.0976
• TCTAGTTGGTCAAAGGTCACTCACTCGAAATGCG = 3.03
• GCAGAGAGGTGAAACGCAGGTAACTCAGGGTGGC = -0.369
• AGAAAGAGGTTACCAAAGATCAGGGAAACGCTTG = -0.0812
• CCGACTGGGGCAGAAAGGTTACCACACCATCCGG = -0.223
• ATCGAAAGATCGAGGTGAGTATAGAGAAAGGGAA = -0.151
• TGTCAAAGTTCAAAGGTAACGTGAGTATCCACAC = 4.31
• CCTAGCAGGCCTATCTGGGTCACTCAAGGCTTGA = -0.239
• ACTCGGAGCACAAAGGTCAGAGCTACGCCAGTGA = 0.477
• TCTAGTTAGTCAAAGGTCACACACTCGAAATGCG = 2.57
• ACGTACGGGTCAACGAGGTTATAGCACGCGTATA = 3.93
• ATCGAAAGGTCGTGAGGTGAGGATACAGAAAGGC = 0.974
• TTACCAAGGTGGGCTGAGGTCGTTGATCCAACTC = 2.06
• CCTAGCAGGCCAATCAGGGTCACTCAAGGCTTGA = 1.77
• ATCTCTAGGTAACCTAGTTCAGTGAATGCCGAAC = 0.972
• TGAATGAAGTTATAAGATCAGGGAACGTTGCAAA = -0.524
• GCGACCGGGGCAAAGCAGGTTACCATAAGGTTGG = -0.132
• CGCCCAAGGTCAATGCTAGGTCAGTGAAAGCATT = 2.51
• CCGAATGGGGCAAAGGTTACCATACTCAGTACGA = 0.204
• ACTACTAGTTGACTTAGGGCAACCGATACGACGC = 0.273
• GCAATTAGTTGAAAGGGCAACCGAATGATTCTCG = 0.159
• CGAACTAGGTCATCCAGGACAGTGAATACATTGA = 1.96
• GCTGCTAAGTCAACTGATGGTCAGCTAAAGCTCG = -1.02
• CCAACTAGGTCACAGAGGTCAAAGTCCGTGCGTA = 6.85
• ATCGAAAGGCCGACGAGGTGAGTATACACCGTTT = -0.425
• TCTGCTAGGTAAGTTGGTCAGCTAACGAGCTGCC = -0.989
• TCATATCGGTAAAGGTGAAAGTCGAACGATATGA = -0.566
• TCTGTTAGGTCAACGATGGTCAGCTAATCTGCTA = 0.727
• CGTCCATGGTCATAGGAGGTCAGTGAAGACAGAT = 1.16
• ACTATAAGTTGAGACGAGGGCAACCGATAGGTTG = 1.39
• AAGACAGGGTCACTAGGCCAGAGTAGGTACGAAT = 1.87
• CCGAGTTGGTCAGGAGGTCACACACCGGATATGA = 3.09
• GCGACTGGGGCAAAGCAGGTAACCATAAGGTTGG = -0.329
• TCTGCAAGGTCAACGATGGTCAGCTAATCTGCTA = 1.62
• TGTCAAAGTTCAACGGTAACGTAAGTATCCACAC = 3.5
• CTCGAAAGGTCGTGCTGAGGTGAGTATACCAAAC = 1.06
• ATCTCTAGGTAACAAGTTCAGTGCAAGAGAGGAC = 3.19
• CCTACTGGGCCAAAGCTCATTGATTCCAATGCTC = -0.874
• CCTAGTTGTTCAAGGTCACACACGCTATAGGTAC = 4.98
• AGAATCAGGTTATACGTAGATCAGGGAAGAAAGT = 0.381

###

PBM binding z-score for assorted sequences
# System: VDR:RXRa (NR concentration 270 nM, RXRa partner concentration 90 nM)
# METHOD SUMMARY: PBM binding z-score (relative to random genomic background probes); higher = stronger binding; sequences stand for … in GC…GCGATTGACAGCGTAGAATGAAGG
PROPERTY NAME: PBM binding z-score

- CTACCAAGGTGGACAAGGTCGTTGATTACTATTC: 3
- GGCACGAGGGCATTCGAGTTGATAGCATGGCGAT: 3.54
- GCGGCTGGGGCAAAGCAGGTTACCATAAGGTTGG: 0.192
- CCAGACAGGTGAAAGGGAACTCAGTCTGGTACGC: -0.152
- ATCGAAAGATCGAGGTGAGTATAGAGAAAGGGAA: -0.327
- GCTTGTAGATCAAGGTTAAGCAAGACTAAGCTAA: 0.0624
- CAAACTACGTCACAGAGGTCAAAGTCCGTGCGTA: 5.85
- CAAACGAGGGCATGAGTTGATAGCAAATGCCGAT: 1.58
- CCAGACAGGCGAAAGGTAACTCAGTCTGGTACGC: -0.255
- CCTGCTGGGCCAAGGTCATTGATCAGTCAAAGCA: 3.06
- GCTGTTAGGTCAACTGATGGTCAGCTAAAGCTCG: 2.01
- TCCAGTAGGTTAGTCGGGGCATTCAGCCAACATA: 2.47
- CCAGACAGGTGAAAGGTAACCCAGTCTGGTACGC: 0.645
- CGTGCAAGGTCAAAGGTCAGTGAAGAGATGACGG: 6.7
- CGAACTAGGTCAGCCAGGACAGTGAATACATTGA: 3.1
- CCTGCTAGGTCAATGGTGAGCTAAAGCAGCTCGC: 0.217
- CAAACTAGGTCACGAAATGTCAAAGTCGAATGAC: 3.47
- CGTAGTTGGTCAAGGTCACACACGCTATAGGTAC: 4.2
- CCGAGTAGTTTATGGGGCATTCAGGCAACGGTGA: -0.229
- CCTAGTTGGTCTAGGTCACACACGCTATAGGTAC: 1.42
- TCGAGTAGGTTAGGGGCATGCAGAATGGCGTCGA: 0.195
- CAAACTAGGTCGCGAAAGGTCAAAGTCGAATGAC: 5.94
- CGTCCAAGGTCAATGCTAGGTCAATGAAAGCATT: 5.33
- CGTCCAAGGTCACTGCTAGGTCAGTGAAAGCATT: 5.09
- TCTTGTATATCAACAGGAGGTTAAGAAAGATCGA: 1.28
- TAGCCTAGGTCATTCAGGTGCCAGTATAGAAAGC: 3.1
- AGTCAAAGTTCAGGACGAGGTAGCGTAAAGCACG: 2.43
- CTCGAAAGGTCGTGCTCAGGTGAGTTTACCAAAC: 3.98
- CCAGACAGGTGAGAAGGTAACTAAGCCTCGATTA: -0.0342
- CCGGCTAGGTCATGGTCAGCTAATCTACAGTATG: 1.63
- GCGACTGGGGCAAAGCTGGTTACCATAAGGTTGG: -0.475
- CTCGAAATGTCGGTTGAGGTGAGTATACGGATAA: -0.148
- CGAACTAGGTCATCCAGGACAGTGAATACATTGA: 4.73
- ACTAGCAGGCCAAGTTTGGGGCACTCAAACAAAG: -0.558
- AATAGCAGGCCAAGTTTGGGTCACTCAAACAAAG: 0.703
- CCTTACGGGTCACTGCCAGGTTATAGCATTTGGA: 3.73
- TAGCCTAGGTCAGATCGGACCAGTATACGCTATA: 0.34
- GCGACTGGGGTAAAGCAGGTTACCATAAGGTTGG: 1.15
- CCTCGGAGGCCAGAAGGTCAGAGCTGTCCGCTTT: 0.72
- CGTCCAACGTCATAGGAGGTCAGTGAAGACAGAT: 2.06
- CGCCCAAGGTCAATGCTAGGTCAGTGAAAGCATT: 4.59
- CCTAGTAGGTCAAGGTCACACACGCTATAGGTAC: 5.04
- TAGCCTAGGTCATTCAGTGGCCAGTATAGAAAGC: 2.43

###

PBM binding z-score for assorted sequences
# Test system: RARa:RXR (NR concentration 270 nM, RXRa partner concentration 90 nM)
# METHOD SUMMARY: PBM binding z-score (relative to random genomic background probes); higher = stronger binding; sequences stand for … in GC…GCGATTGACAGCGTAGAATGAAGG
PROPERTY NAME: PBM binding z-score

* CAGAGTAGGTTATGGGGCATTCAGGCAACGGTGA | 0.549
* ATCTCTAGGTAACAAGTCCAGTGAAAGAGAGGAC | 0.195
* ATATCTAGGTAAGACTCAGTTCAGTGAAGAACGC | 0.287
* TGTCAAAGTTCAAAGGTATCGTAAGTATCCACAC | 4.95
* CATACAGGGTCAGCTACGCCAGAGTAGGGACGGC | 3.27
* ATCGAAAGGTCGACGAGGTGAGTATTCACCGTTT | 3.29
* TGAATGAGGTTATAAGATGAGGGAACGTTGCAAA | 1.49

# credit: the supplement of paper PMC6555819
